Tested on: mouse liver cancer Hepa1-6 cells
Assay Comment: Series B: tumor inhibition, Hepa1-6 transplantation tumor in 8-month-old mice (Example 10)
Format: in vivo
Conditions: one intratumoral injection 100 μl/mouse, day 3
Protocol: The animals in series B were modeled in 8-month-old mice as a middle-aged and elderly patient model, which was not consistent with the commonly used young patient model in terms of tumor formation, tumor histomorphology, and body immunocompetence. […] The actual/expected ratio […] for short-term drug efficacy and the actual/expected ratio q14d for medium-term drug efficacy were calculated based on the drug efficacies (r′3d, […]) at different times (day 3, day 14), respectively.
Assay Readout: r'3d, tumor inhibition rate (tumor volume)

>  <Molecule>
O=c1[nH]cc(F)c(=O)[nH]1 [1% 5-fluorouracil, 5-fluorouracil]

>  <Result>
26.8%

$$$$
>  <Molecule>
O=C([O-])O.[Na+] [7% sodium bicarbonate, sodium bicarbonate]

>  <Result>
4.1%

$$$$
>  <Molecule>
CN(C)c1ccc2nc3ccc(=[N+](C)C)cc-3sc2c1 [1% methylene blue, methylene blue]

>  <Result>
27.8%

$$$$
>  <Molecule>
[Na+].[OH-] [3% NaOH, sodium hydroxide]

>  <Result>
31.2%

$$$$

---

System: breast cancer 4T1 cells
Assay Comment: Tumor inhibition, breast cancer 4T1 transplantation tumor (Example 6)
Type: in vivo, BALB/c mouse
Conditions: intratumoral, 150 μl/mouse, once every 3 days x3, 5th day after end

>  <Molecule>
Cl [5% hydrochloric acid, hydrochloric acid]

>  <Measurement Unit>
g

>  <Tumor weight (x ± s)>
0.36

$$$$
>  <Molecule>
Cl [3.5% hydrochloric acid, hydrochloric acid]

>  <Measurement Unit>
g

>  <Tumor weight (x ± s)>
0.82

$$$$
>  <Molecule>
O=C([O-])O.[Na+] [5% sodium bicarbonate, sodium bicarbonate]

>  <Measurement Unit>
g

>  <Tumor weight (x ± s)>
1.57

$$$$
>  <Molecule>
Cl [0.4% hydrochloric acid, hydrochloric acid]

>  <Measurement Unit>
g

>  <Tumor weight (x ± s)>
1.65

$$$$
>  <Molecule>
O=C([O-])O.[Na+] [15% sodium bicarbonate, sodium bicarbonate]

>  <Measurement Unit>
g

>  <Tumor weight (x ± s)>
1.29

$$$$

---

Tested on: sarcoma S180 cell
Assay Comment: Tumor inhibition effect in mice bearing sarcoma S180 cell (Example 2)
Assay type: in vivo
Conditions: intratumoral injection; vs negative control group 01
Measured Tumor inhibition rate of individual entries

>  <Compound>
O=C([O-])O.[Na+] [7% sodium bicarbonate, sodium bicarbonate]

>  <Tumor inhibition rate>
28%

$$$$
>  <Compound>
[Na+].[OH-] [3% NaOH, sodium hydroxide]

>  <Tumor inhibition rate>
53%

$$$$
>  <Compound>
N=C(N)NCCC[C@H](N)C(=O)O

>  <Tumor inhibition rate>
23%

$$$$
>  <Compound>
[Na+].[OH-] [0.3% NaOH, sodium hydroxide]

>  <Tumor inhibition rate>
31%

$$$$

---

Assay Comment: pH of the study drug aqueous solution
Type: physicochemical
Conditions: study drugs of Example 4 (Table 6), aqueous solution
Assay Readout: pH

>  <Compound>
O=C([O-])[O-].[Na+].[Na+] [14% sodium carbonate, sodium carbonate]

>  <Result>
10.8

$$$$
>  <Compound>
O=C([O-])O.[Na+] [2% sodium bicarbonate, sodium bicarbonate]

>  <Result>
8.2

$$$$
>  <Compound>
O=C([O-])O.[Na+] [5% sodium bicarbonate, sodium bicarbonate]

>  <Result>
8.2

$$$$
>  <Compound>
O=C([O-])[O-].[Na+].[Na+] [7% sodium carbonate, sodium carbonate]

>  <Result>
10.8

$$$$
